Give LD50 for every item shown.
- Method Notes: Acute toxicity in the mouse (DL50, method of Miller and Tainter)
- Condition Context: in vivo, v.o. (oral) route, read-out: DL 50 (the source's name)
- Excerpt: The acute toxicity of the amine ester derivatives of β-[ benzo(b)thienyl-3]propionic acid have been studied in the mouse by intraperitoneal and oral routes, the products being administered in an isotonic solution of sodium chloride, 0.9%, or in suspension in a dilute aqueous solution of carboxymethyl cellulose. The calculation of the DL50 has been effected according to the method of MILLER and TAINTER (MILLER. L.C., TAINTER M.L. - Proc. Soc. Exptl. Biol. Med. 1944-57-261,264).
Answers are plain numbers, in mg/kg.

Examples with their reported LD50 follow.
Molecule	Experimental Endpoint	Test Result
O=C(OCCCN1CCCC1)C(Cc1csc2ccccc12)CC1CCCO1 (centres unmarked) [Compound 54]	LD50	400
C=CCC(Cc1csc2ccccc12)C(=O)OCCCN(CC)CC (centres unmarked) [Compound 7]	LD50	1290

Field: next molecule
LD50 recorded for this molecule, CCN(CC)CCCOC(=O)C(Cc1csc2ccccc12)CC1CCCO1 (centres unmarked) [Compound 53] , is 1150

Reference for the values: patent US3954780A
